# Test Details: AUC (0 to 6 hrs) in Sprague-Dawley rat at 32 mg/kg, po measured upto 6 hrs by HPLC analysis
# Type: ADME, organism-based
# Design: dose 32 mg/kg, time < 6 hr, route oral
# Test Settings: in vivo
Measure: AUC(0-t) at 6 h (ng·h/mL)
API: value field is a number in ng·h/mL; no unit string.

| Compound | Measure | Value Measured |
| --- | --- | --- |
| COc1cc(O)ccc1N1CCN(CC(O)COc2cccc3ccccc23)CC1 (configuration not stated) | AUC(0-t) at 6 h | 204 |

Next, consider the following compound.
Looking up COc1ccccc1N1CCN(CC(O)COc2cccc3ccccc23)CC1 (configuration not stated) , I found its AUC(0-t) at 6 h recorded as 202
